Target: c-kit (Homo sapiens)
Construct: human Mo7e cells which endogenously express c-kit; endogenous in cells; host or cells: human Mo7e cells (SCF-dependent promegakaryocytic leukemia line)
Test: Mo7e cell proliferation assay (SCF dependent proliferation)
Format: cell-based
Details: Table 1; human Mo7e cells stimulated with human recombinant SCF, 48 h, CellTiter Glo; 1% FBS (footnote)
pIC50: recorded values
Scale: pIC50 equals -log10([C]), with [C] in mol/L.

Solved cases below.
1) Cc1ccc(-c2noc(COC(CF)CF)n2)cc1NC(=O)c1cnc2ccccn12 ... 7.55
2) Cc1ccn2c(C(=O)Nc3cc(-c4noc(CC[C@](C)(O)C(F)(F)F)n4)ccc3C)cnc2c1 (single isomer, unassigned) ... 7.19
3) Cc1nc(-c2ccc(C)c(NC(=O)c3cnc4ccccn34)c2)no1 ... 7.07
4) Cc1nc(-c2ccc(C)c(NC(=O)c3cnc4ccc(-c5cccnc5C)cn34)c2)no1 ... 7.28
5) CCN(CC)C(=O)CCc1nc(-c2ccc(C)c(NC(=O)c3cnc4ccccn34)c2)no1 ... 7.17
6) Cc1ccc(-c2noc(C[C@@H](O)C(F)(F)F)n2)cc1NC(=O)c1cnc2ccccn12 ... 7.24

What value of measured pIC50 is listed for Cc1ccn2c(C(=O)Nc3cc(-c4noc(CCC(C)(C)O)n4)ccc3C)cnc2c1 ?
7.28

What value of measured pIC50 is listed for Cc1nc(-c2ccc(C)c(NC(=O)c3cnc4ccc(-c5cccn5C)cn34)c2)no1 ?
7.10

---

IC50: recorded values
Target: c-kit (Homo sapiens)
Construct: human Mo7e cells which endogenously express c-kit; endogenous in cells; host or cells: human Mo7e cells (SCF-dependent promegakaryocytic leukemia line)
Assay: Mo7e cell proliferation assay (SCF dependent proliferation)
Assay type: cell-based
Conditions: Table 2; human Mo7e cells stimulated with human recombinant SCF, 48 h, CellTiter Glo; 1% FBS (footnote)

Solved cases below.
1) Cc1ccc(-c2noc(CCC(C)(C)O)n2)cc1NC(=O)c1cnc2ccc(N3CCOCC3)cn12 [F194] ... 126 nM
2) COC(=O)NCc1nc(-c2ccc(C)c(NC(=O)c3cnc4ccc(F)cn34)c2)no1 [F167] ... 166 nM
3) Cc1ccc(Nc2noc(C(C)C)n2)cc1NC(=O)c1cnc2ccccn12 [F174] ... 284 nM

Find IC50 (c-kit (Homo sapiens)) for the entry Cc1ccc(-c2nc(C(C)(C)C)no2)cc1NC(=O)c1cnc2ccccn12 [F225]
1590 nM

Find IC50 (c-kit (Homo sapiens)) for the entry Cc1nc(-c2ccc(C)c(NC(=O)c3cnc4ccc(-c5nc(C)c(C(=O)NCCO)s5)cn34)c2)no1 [F242]
155 nM

Find IC50 (c-kit (Homo sapiens)) for the entry Cc1nc(-c2ccc(C)c(NC(=O)c3cnc4ccc(-c5csc(N6CCOCC6)n5)cn34)c2)no1 [F176]
226 nM

Find IC50 (c-kit (Homo sapiens)) for the entry Cc1ccc(-c2noc(C(F)C(F)(F)F)n2)cc1NC(=O)c1cnc2ccccn12 (centres unmarked) [F199]
126 nM

Find IC50 (c-kit (Homo sapiens)) for the entry COCCOCc1nc(-c2ccc(F)c(NC(=O)c3cnc4ccc(-c5cnn(CC(C)(C)O)c5)cn34)c2)no1 [F182]
328 nM

Find IC50 (c-kit (Homo sapiens)) for the entry COC(=O)N[C@@H](C)c1nc(-c2ccc(C)c(NC(=O)c3cnc4ccccn34)c2)no1 [F135]
166 nM

Find IC50 (c-kit (Homo sapiens)) for the entry CC(C)(O)CCc1nc(-c2ccc(F)c(NC(=O)c3cnc4ccc(-c5cnn(CC(C)(C)O)c5)cn34)c2)no1 [F183]
394 nM

Find IC50 (c-kit (Homo sapiens)) for the entry CC(=O)N[C@@H](C)c1nc(-c2ccc(C)c(NC(=O)c3cnc4ccccn34)c2)no1 [F140]
1340 nM

Find IC50 (c-kit (Homo sapiens)) for the entry Cc1nc(-c2ccc(C)c(NC(=O)c3cnc4ccc(C(N)=O)cn34)c2)no1 [F240]
1480 nM

Find IC50 (c-kit (Homo sapiens)) for the entry Cc1nc(-c2ccc(C)c(NC(=O)c3cnc4ccc(C#N)cn34)c2)no1 [F185]
508 nM

Find IC50 (c-kit (Homo sapiens)) for the entry Cc1nc(-c2ccc(C)c(NC(=O)c3cnc4ccc(-c5nc(C)c(C(=O)NCCN6CCOCC6)s5)cn34)c2)no1 [F245]
120 nM

---

IC50: recorded values
Biological target: c-kit (Homo sapiens, UniProt P10721)
Construct: human Mo7e cells which endogenously express c-kit; endogenous in cells; host or cells: human Mo7e cells (SCF-dependent promegakaryocytic leukemia line)
Sequence (P10721 26-976): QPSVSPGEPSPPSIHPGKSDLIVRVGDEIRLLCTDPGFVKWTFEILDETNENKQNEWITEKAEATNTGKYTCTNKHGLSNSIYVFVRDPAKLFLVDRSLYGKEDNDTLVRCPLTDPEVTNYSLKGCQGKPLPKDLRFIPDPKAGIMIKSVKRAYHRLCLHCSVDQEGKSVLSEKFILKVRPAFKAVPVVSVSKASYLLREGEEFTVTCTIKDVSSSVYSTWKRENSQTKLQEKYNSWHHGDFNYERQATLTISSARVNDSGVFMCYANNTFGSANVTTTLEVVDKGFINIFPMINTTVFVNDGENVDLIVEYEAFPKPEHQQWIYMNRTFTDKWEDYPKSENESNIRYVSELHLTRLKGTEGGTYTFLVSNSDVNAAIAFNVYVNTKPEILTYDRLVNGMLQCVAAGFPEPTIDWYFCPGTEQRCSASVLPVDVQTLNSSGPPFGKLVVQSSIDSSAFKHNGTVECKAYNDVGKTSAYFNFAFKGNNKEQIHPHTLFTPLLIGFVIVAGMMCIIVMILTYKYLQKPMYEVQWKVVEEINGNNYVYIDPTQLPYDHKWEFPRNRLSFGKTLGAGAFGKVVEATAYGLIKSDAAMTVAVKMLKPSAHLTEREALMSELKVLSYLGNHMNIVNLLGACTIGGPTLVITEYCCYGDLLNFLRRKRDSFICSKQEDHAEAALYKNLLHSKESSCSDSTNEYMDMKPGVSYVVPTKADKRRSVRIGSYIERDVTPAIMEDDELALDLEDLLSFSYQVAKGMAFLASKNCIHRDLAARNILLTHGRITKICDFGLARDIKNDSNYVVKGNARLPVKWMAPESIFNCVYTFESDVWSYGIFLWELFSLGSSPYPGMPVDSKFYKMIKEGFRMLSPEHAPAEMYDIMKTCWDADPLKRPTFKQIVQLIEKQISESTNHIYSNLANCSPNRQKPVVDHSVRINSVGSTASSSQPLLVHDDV
Assay: Mo7e cell proliferation assay (SCF dependent proliferation)
Type: cell-based
Conditions: Table 1; human Mo7e cells stimulated with human recombinant SCF, 48 h, CellTiter Glo; 1% FBS (footnote)
Kindly provide the numeric value in nM only, without the unit symbol.

1) Cc1ccc(-c2noc(CCC(C)(C)O)n2)cc1NC(=O)c1cnc2cc(N3CCOCC3)ccn12 ... 58
2) CNC(=O)c1ccc(-c2ccc3ncc(C(=O)Nc4cc(-c5noc(C)n5)ccc4C)n3c2)cn1 ... 68
3) Cc1nc(-c2ccc(C)c(NC(=O)c3cnc4ccc(-c5sc(C)nc5C)cn34)c2)no1 ... 7

What value of measured IC50 is listed for Cc1nc(-c2ccc(C)c(NC(=O)c3cnc4ccc(-c5cn[nH]c5)cn34)c2)no1 ?
46

What value of measured IC50 is listed for Cc1ccc(-c2noc(CCC#N)n2)cc1NC(=O)c1cnc2ccccn12 ?
78

What value of measured IC50 is listed for Cc1nc(-c2ccc(C)c(NC(=O)c3cnc4ccc(-c5c[nH]nc5C)cn34)c2)no1 ?
19

What value of measured IC50 is listed for Cc1ccc(-c2noc(COCCOC(C)(C)C)n2)cc1NC(=O)c1cnc2ccccn12 ?
93

What value of measured IC50 is listed for Cc1ccn2c(C(=O)Nc3cc(-c4noc(CC(O)(C(F)(F)F)C(F)(F)F)n4)ccc3C)cnc2c1 ?
51

What value of measured IC50 is listed for Cc1nc(-c2ccc(C)c(NC(=O)c3cnc4ccc(-c5sc(C(=O)NCCN6CCOCC6)nc5C)cn34)c2)no1 ?
75

---

log10 IC50: recorded values
Biological target: c-kit (Homo sapiens)
Construct: human Mo7e cells which endogenously express c-kit; endogenous in cells; host or cells: human Mo7e cells (SCF-dependent promegakaryocytic leukemia line)
Assay: Mo7e cell proliferation assay (SCF dependent proliferation)
Type: cell-based
Conditions: Table 2; human Mo7e cells stimulated with human recombinant SCF, 48 h, CellTiter Glo; 1% FBS (footnote)
Reminder: these figures are log10 of reported IC50, in nM before transformation.

1) Cc1cc(F)c(-c2noc(CNC(=O)OC(C)(C)C)n2)cc1NC(=O)c1cnc2ccccn12 ... 2.30
2) COCCOCc1nc(-c2ccc(C)c(NC(=O)c3cnc4ccccn34)c2C)no1 ... 2.95
3) COCCNC(=O)OCc1nc(-c2ccc(C)c(NC(=O)c3cnc4ccccn34)c2)no1 ... 2.14
4) CCN(CC)C(=O)Cc1nc(-c2ccc(C)c(NC(=O)c3cnc4ccccn34)c2)no1 ... 2.63
5) Cc1ccc(-c2noc([C@@H](C)NC(=O)OC(C)(C)C)n2)cc1NC(=O)c1cnc2ccccn12 ... 2.01
6) Cc1ccc(-c2noc(C(C)(C)CO)n2)cc1NC(=O)c1cnc2ccccn12 ... 2.83
7) Cc1nc(-c2ccc(C)c(NC(=O)c3cnc4ccc(-c5sc(C(=O)O)nc5C)cn34)c2)no1 ... 2.53
8) Cc1ccc(-c2noc(CCNS(C)(=O)=O)n2)cc1NC(=O)c1cnc2ccccn12 ... 2.61
9) Cc1ccc(-c2noc(CCS(N)(=O)=O)n2)cc1NC(=O)c1cnc2ccccn12 ... 2.87
10) Cc1nc(-c2ccc(C)c(NC(=O)c3cnc4ccc(CCC(C)(C)O)cn34)c2)no1 ... 2.46

What value of measured log10 IC50 is listed for Cc1ccc(-c2noc(CCC(C)(C)O)n2)cc1NC(=O)c1cnc2ccc(-n3ccnc3)cn12 ?
3.10

What value of measured log10 IC50 is listed for COC(=O)NCc1nc(-c2ccc(C)c(NC(=O)c3cnc4ccc(CCC(=O)OC(C)(C)C)cn34)c2)no1 ?
3.01

What value of measured log10 IC50 is listed for COCCCN(Cc1nc(-c2ccc(C)c(NC(=O)c3cnc4ccccn34)c2)no1)C(=O)C(F)(F)F ?
2.13

What value of measured log10 IC50 is listed for Cc1ccc(-c2noc(CNC(=O)CCO)n2)cc1NC(=O)c1cnc2ccccn12 ?
3.17

What value of measured log10 IC50 is listed for Cc1ccc(-c2noc(CNC(=O)CCOCC(F)(F)F)n2)cc1NC(=O)c1cnc2ccccn12 ?
2.33

What value of measured log10 IC50 is listed for COCCOCc1nc(-c2ccc(C)c(NC(=O)c3cnc4ccc(F)cn34)c2)no1 ?
2.14

What value of measured log10 IC50 is listed for Cc1ccn2c(C(=O)Nc3cc(-c4noc(CCC(C)(C)OC(=O)CN)n4)ccc3C)cnc2c1 ?
2.03

What value of measured log10 IC50 is listed for Cc1ccc(-c2noc(C(C)C)n2)cc1NC(=O)c1cnc2ccccn12 ?
2.09

What value of measured log10 IC50 is listed for Cc1ccc(-c2noc(CNC(=O)CC(C)(C)O)n2)cc1NC(=O)c1cnc2ccccn12 ?
3.16

What value of measured log10 IC50 is listed for Cc1ccc(-c2noc(CCC(N)=O)n2)cc1NC(=O)c1cnc2ccccn12 ?
2.90

What value of measured log10 IC50 is listed for Cc1ccc(-c2noc(CCC(C)O)n2)cc1NC(=O)c1cnc2ccccn12 (stereo not drawn) ?
2.02

What value of measured log10 IC50 is listed for COCCNc1nc(-c2ccc(C)c(NC(=O)c3cnc4cc(C)ccn34)c2)no1 ?
2.04
